Target: T1, β-catenin (UniProt P35222 134-665, limits assumed, biotinylated in the SPR and plate assays)
T1 sequence (looked up): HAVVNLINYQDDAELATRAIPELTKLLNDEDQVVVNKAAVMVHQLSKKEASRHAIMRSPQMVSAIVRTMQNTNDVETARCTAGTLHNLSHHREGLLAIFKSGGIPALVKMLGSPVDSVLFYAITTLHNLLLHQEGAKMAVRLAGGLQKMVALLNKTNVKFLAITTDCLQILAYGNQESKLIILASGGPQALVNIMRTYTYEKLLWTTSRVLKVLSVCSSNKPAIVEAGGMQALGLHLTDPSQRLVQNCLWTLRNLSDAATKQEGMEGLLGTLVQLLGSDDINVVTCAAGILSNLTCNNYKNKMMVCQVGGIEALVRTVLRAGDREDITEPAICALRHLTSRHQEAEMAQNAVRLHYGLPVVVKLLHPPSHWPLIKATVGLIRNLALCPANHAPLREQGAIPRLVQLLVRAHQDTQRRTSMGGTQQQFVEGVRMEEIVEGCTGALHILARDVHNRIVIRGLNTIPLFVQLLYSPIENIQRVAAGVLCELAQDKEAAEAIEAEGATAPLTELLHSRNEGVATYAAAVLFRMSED
Assay: cell-based or functional assay
Bridges are numbered along the chain shown (N, C = ends). Where no end group is shown, it is not given here.
Each item that follows carries a reported Wnt Reporter EC50.

As a guide, the following entries are already answered.
INSERT INTO measurements (binder, measured) VALUES
  ('PQKILDEHVQRVMK-NH2 (bridge 3-7; not fully specified (N-terminus); printed as H23C11C(O)-PQK*ILDE*HVQRVMK-NH2; also: K3* and E7* marked (linkage not given here)) [SEQ ID NO: 486]', '> 30 µM'),
  ('KWFLICFWE (HELM PEPTIDE1{K.W.F.L.I.C.F.W.E}$PEPTIDE1,PEPTIDE1,1:R3-9:R3$$$V2.0; SMILES CC[C@H](C)[C@@H]1NC(=O)[C@H](CC(C)C)NC(=O)[C@H](Cc2ccccc2)NC(=O)[C@H](Cc2c[nH]c3ccccc23)NC(=O)[C@@H](N)CCCCNC(=O)CC[C@@H](C(=O)O)NC(=O)[C@H](Cc2c[nH]c3ccccc23)NC(=O)[C@H](Cc2ccccc2)NC(=O)[C@H](CS)NC1=O) [SEQ ID NO: 179]', '≤ 7.5 µM');

INPUT: Look up Wnt Reporter EC50: MWILISFWG (HELM PEPTIDE1{[CC(C)(C)C(=O)[*:2]].M.W.I.L.I.S.F.W.G}$$$$V2.0; SMILES CC[C@H](C)[C@H](NC(=O)[C@H](CC(C)C)NC(=O)[C@@H](NC(=O)[C@H](Cc1c[nH]c2ccccc12)NC(=O)[C@H](CCSC)NC(=O)C(C)(C)C)[C@@H](C)CC)C(=O)N[C@@H](CO)C(=O)N[C@@H](Cc1ccccc1)C(=O)N[C@@H](Cc1c[nH]c2ccccc12)C(=O)NCC(=O)O) [SEQ ID NO: 225]
OUTPUT: ≤ 7.5 µM

src = patent US20260098059A1
